Target: CnCam1 with human calcineurin (Cryptococcus neoformans, UniProt J9VTH9)
Endpoint: IC50 (µM)

>>> numeric_value("CN(C)CCOc1ccc(/C(=C(/CCCl)c2ccccc2)c2ccccc2)cc1")
61.6
